Data provenance is BigSolDB 2.1.

MEASUREMENT_CONDITIONS: in n-propanol, 283.15 K
EXPERIMENTAL_READOUT: solubility (mole fraction)
When you answer, write just the number.

Give the measured solubility (mole fraction) of Nc1ccc(Cl)cc1[N+](=O)[O-] .
0.013

----------
MEASUREMENT_CONDITIONS: in ethyl acetate, 313.15 K
EXPERIMENTAL_READOUT: solubility (mole fraction)
Answer using only a numeral; do not append any unit.

Quick one: solubility (mole fraction) for Nc1ccc(Cl)cc1[N+](=O)[O-] ?
0.113

----------
MEASUREMENT_CONDITIONS: in water, 293.15 K
EXPERIMENTAL_READOUT: solubility (mole fraction)
The answer should be written as a number, with no unit following it.

solubility (mole fraction) lookup needed for Nc1ccc(Cl)cc1[N+](=O)[O-] , thanks.
1.9e-05

----------
MEASUREMENT_CONDITIONS: in acetonitrile, 283.15 K
EXPERIMENTAL_READOUT: solubility (mole fraction)
Number, no unit, nothing else.

Data request, read-out solubility (mole fraction), for Nc1ccc(Cl)cc1[N+](=O)[O-]
0.0373

----------
MEASUREMENT_CONDITIONS: in ethyl acetate, 283.15 K
EXPERIMENTAL_READOUT: solubility (mole fraction)
Give the figure by itself; no unit, no explanation.

Look at this compound and give its reported solubility (mole fraction). Nc1ccc(Cl)cc1[N+](=O)[O-]
0.0244

----------
MEASUREMENT_CONDITIONS: in NMP, 318.15 K
EXPERIMENTAL_READOUT: solubility (mole fraction)
Give the figure only, with no unit attached.

What solubility (mole fraction) value was documented for this compound, Nc1ccc(Cl)cc1[N+](=O)[O-] ?
0.187

----------
MEASUREMENT_CONDITIONS: in cyclohexane, 318.15 K
EXPERIMENTAL_READOUT: solubility (mole fraction)

Which solubility (mole fraction) reading was recorded for the compound Nc1ccc(Cl)cc1[N+](=O)[O-] ?
0.00124

----------
MEASUREMENT_CONDITIONS: in ethyl acetate, 318.15 K
EXPERIMENTAL_READOUT: solubility (mole fraction)
API doc: respond with a numeric literal and nothing else, no unit.

Given Nc1ccc(Cl)cc1[N+](=O)[O-] , state its recorded solubility (mole fraction).
0.143

----------
MEASUREMENT_CONDITIONS: in NMP, 313.15 K
EXPERIMENTAL_READOUT: solubility (mole fraction)
Provide a numeric answer; units are not to be included.

I'd like to know its solubility (mole fraction). The compound in question is Nc1ccc(Cl)cc1[N+](=O)[O-]
0.167

----------
MEASUREMENT_CONDITIONS: in n-propanol, 288.15 K
EXPERIMENTAL_READOUT: solubility (mole fraction)
Would you mind answering with just the numeric figure?

Query: solubility (mole fraction); subject: Nc1ccc(Cl)cc1[N+](=O)[O-]
0.0152

----------
MEASUREMENT_CONDITIONS: in ethanol, 288.15 K
EXPERIMENTAL_READOUT: solubility (mole fraction)
Field format: numeric only.

Need solubility (mole fraction) of Nc1ccc(Cl)cc1[N+](=O)[O-] , thanks.
0.0168

----------
MEASUREMENT_CONDITIONS: in cyclohexane, 313.15 K
EXPERIMENTAL_READOUT: solubility (mole fraction)
Give the value as a plain number.

Which solubility (mole fraction) is reported for this compound? Nc1ccc(Cl)cc1[N+](=O)[O-]
0.000983

----------
MEASUREMENT_CONDITIONS: in methanol, 293.15 K
EXPERIMENTAL_READOUT: solubility (mole fraction)
// no unit string in output, number only

Quick one: solubility (mole fraction) for Nc1ccc(Cl)cc1[N+](=O)[O-] ?
0.0239

----------
MEASUREMENT_CONDITIONS: in ethylene glycol, 308.15 K
EXPERIMENTAL_READOUT: solubility (mole fraction)

Given the compound Nc1ccc(Cl)cc1[N+](=O)[O-] , what is its reported solubility (mole fraction)?
0.00737

----------
MEASUREMENT_CONDITIONS: in n-butanol, 278.15 K
EXPERIMENTAL_READOUT: solubility (mole fraction)
I'd appreciate a reply containing only the number, no unit.

Quick one: solubility (mole fraction) for Nc1ccc(Cl)cc1[N+](=O)[O-] ?
0.00963

----------
MEASUREMENT_CONDITIONS: in acetonitrile, 303.15 K
EXPERIMENTAL_READOUT: solubility (mole fraction)
# respond with the number and nothing more

Field request: solubility (mole fraction) | item: Nc1ccc(Cl)cc1[N+](=O)[O-]
0.075

----------
MEASUREMENT_CONDITIONS: in 1,4-dioxane, 303.15 K
EXPERIMENTAL_READOUT: solubility (mole fraction)
Lab note: record just the number, no unit beside it.

Entry Nc1ccc(Cl)cc1[N+](=O)[O-] : reported solubility (mole fraction) = ?
0.0509

----------
MEASUREMENT_CONDITIONS: in methanol, 298.15 K
EXPERIMENTAL_READOUT: solubility (mole fraction)
Reply with the value as a number alone.

Endpoint output: solubility (mole fraction) of Nc1ccc(Cl)cc1[N+](=O)[O-] . Value?
0.0287
